self-cleavage values for the variants below.
B1: HDV Ribozyme (parent)
chain: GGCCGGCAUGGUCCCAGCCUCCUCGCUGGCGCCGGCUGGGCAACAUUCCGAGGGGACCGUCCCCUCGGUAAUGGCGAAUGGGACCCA

- Variants of: B1
- procedure_details: self-cleavage, relative activity (ratio to wild type); higher = more cleavage; co-transcriptional
Please reply with the value in numeric form only.

C26A A83C : 0.752
C41A C61A : 1.07
C14U G39C : 0.262

Query: I have this variant here, U9C U20C , and I need its recorded self-cleavage.
Response: 0

Query: I have this variant here, G11C C15U , and I need its recorded self-cleavage.
Response: 0.0554

Query: I have this variant here, G17A A56G , and I need its recorded self-cleavage.
Response: 0.59
